system: transplanted paddy-field rice; test: Test Example 4: crop injury against transplanted paddy-field rice; type: in vivo; settings: derivative 5 g/a, no second compound; after 25 days
measure: Crop injury against transplanted rice

Prompt line: Determine its reported Crop injury against transplanted rice: Oc1cc(Cl)nnc1Oc1cccc2c1CCC2 [Example 171]
Response line: 0 (Growth-inhibition rate; 0 to 15%)

Prompt line: Indicate the recorded Crop injury against transplanted rice value for this compound: Cc1cc(C)c(C2CC2)c(Oc2nnc(Cl)cc2O)c1 [Example 288]
Response line: 0 (Growth-inhibition rate; 0 to 15%)

Prompt line: Give reported Crop injury against transplanted rice value for Oc1cc(Cl)nnc1Oc1c(Cl)cccc1C1CC1 [Example 245]
Response line: 0 (Growth-inhibition rate; 0 to 15%)

Where these numbers come from: patent US7964531B2
